Listing: TGI of selected compounds
- Tested on: CCRF-CEM leukemia
- TEST_DESCRIPTION: NCI tumour cell line growth inhibition, 48 h

Exercise: For N#Cc1c(-c2ccc(Cl)cc2)[nH]c(=O)n(C2OC(CO)C(O)C(O)C2O)c1=O (stereo not given) , what is its reported TGI?
Key: > 100 µM

Exercise: GET /values?readout=TGI&item= N#Cc1c(N2CCC(O)C2)c2ccccc2n2c1nc1ccccc12 (stereo not given)
Key: > 100 µM

Exercise: Fill in: TGI of O=C(COc1cc(O)c2c(=O)cc(-c3ccccc3)oc2c1)Nc1ccccc1C(F)(F)F is ___
Key: 64.1 µM

Exercise: Param item = C#CCSc1cc(Cl)c(C)cc1S(=O)(=O)Nc1nc2ccccc2o1 ; retrieve measured TGI.
Key: > 100 µM

Let's switch to this compound now.
Exercise: Param item = COc1ccccc1C1ON=C(c2ccc([N+](=O)[O-])cc2)N1C12CC3CC(CC(C3)C1)C2 (stereo not given) ; retrieve measured TGI.
Key: > 100 µM

====

GI50 by entry:
- System: UACC-62 melanoma
- TEST_DESCRIPTION: NCI tumour cell line growth inhibition, 48 h

Answered cases to consult:
Exercise: # query: GI50 of entry CCC(=C/[C@H](C)C/C=C/C(C)=C/[C@@H](C)C(=O)[C@@H](C)[C@H](O)[C@@H](C)CC)/C=C/[C@@H]1OC(=O)C=C[C@H]1C
Key: < 0.01 µM

Exercise: GI50 for O=C(NCCCO)c1cc(Cl)ccc1O ?
Key: 3.09 µM

Exercise: Quick one: GI50 of COc1cc(C2SCC(=O)N2c2ncc(C)s2)cc(OC)c1OC (centres undefined) ?
Key: 12.5 µM

# evaluate next
Exercise: For the compound shown here, Nc1c(C(=O)Nc2cccc(F)c2)sc2nc3c(cc12)C(=O)CCC3 , give the reported GI50.
Key: 0.491 µM

====

- System: SW-620 colon
- TEST_DESCRIPTION: NCI tumour cell line growth inhibition, 48 h
READOUT_NAME: TGI

Before answering, review these 9 worked examples.
Exercise: # query: TGI of entry NC(=O)/N=C1/CCC2C3CCCC2C13
Key: > 100 µM

Exercise: Requested field: TGI. Item: CC(C)[C@H](NC(=O)[C@H](N)Cc1ccc(N(CCCl)CCCl)cc1)C(=O)O
Key: > 100 µM

Exercise: Form field: reported TGI of COc1ccc(/C(Cl)=C(\C=N/O)c2ccc(OC)c(OC)c2)cc1OC
Key: > 100 µM

Exercise: Entry Cc1c(N2CCN(C)CC2)nc2ccc(Cl)cc2c1-c1ccccc1 : reported TGI = ?
Key: 34.6 µM

Exercise: Data request, read-out TGI, for COc1cc(-c2cc(O)c(-c3ccc4ccccc4n3)c(=O)[nH]2)cc(OC)c1OC
Key: 66.1 µM

Exercise: Query: TGI; subject: CC[C@@]1(C)CCC2c3ccc(O)cc3CC[C@H]2C1C (stereo not given in full)
Key: 32.4 µM

Exercise: Consider the compound CCN(CC)CC(O)CNc1c2ccc([N+](=O)[O-])cc2nc2cc(OC)c(OC)cc12 (stereo not given) and give its measured TGI.
Key: 2.37 µM

Exercise: What measured TGI goes with CC1(C)Cc2nc3c(cc2C(=O)C1C=N/C(C#N)=C(\N)C#N)C(=O)C(C=N/C(C#N)=C(\N)C#N)C(C)(C)C3 (stereo not given) ?
Key: > 20.5 µM

Exercise: What does the record list as TGI for CN(Cc1ccccc1)c1ccc(CO)c(Cl)c1 ?
Key: > 100 µM

Query compound follows.
Exercise: Can you share its TGI? I mean this compound: O=C(COc1cc(O)c2c(=O)cc(-c3ccccc3)oc2c1)Nc1ccccc1C(F)(F)F
Key: > 100 µM

====

Below is a list of entries, each paired with its recorded TGI value.
- Tested on: IGROV1 ovarian
- TEST_DESCRIPTION: NCI tumour cell line growth inhibition, 48 h

Reference set, count: 10
Exercise: Fill in the blank: the reported TGI of N#Cc1c(-c2ccc(Cl)cc2)[nH]c(=O)n(C2OC(CO)C(O)C(O)C2O)c1=O (stereo not drawn) is ____.
Key: > 100 µM

Exercise: Please give the measured TGI for this molecule: COC(=O)c1ccc(N=NN(C)COc2ccc(Br)cc2)cc1
Key: > 100 µM

Exercise: Name the reported TGI value associated with the molecule O=c1[nH]c(=S)[nH]c2c1CN(CCCN1CCOCC1)CN2
Key: > 100 µM

Exercise: Reported TGI, molecule COC1CN(C)C(=Nc2cccc3ccccc23)S1 (stereo not drawn) : ____
Key: > 10 µM

Exercise: What TGI value was documented for this molecule, COC(=O)c1cccn1C(=O)n1cccc1 ?
Key: > 100 µM

Exercise: Which value of TGI has been reported for COc1ccccc1C1ON=C(c2ccc([N+](=O)[O-])cc2)N1C12CC3CC(CC(C3)C1)C2 (stereo not drawn) in the records?
Key: > 100 µM

Exercise: Name the recorded TGI for CC(C)NC(=O)OCc1c(CO)c2c(n1C)-c1ccccc1CC2 .
Key: > 77.6 µM

Exercise: # get_value(readout='TGI', item= CC(C)O/N=C/c1cc(NC(=S)OC(C)C)ccc1Cl )
Key: > 94.1 µM

Exercise: Item CC1=C(c2ccccc2)NC(=S)C(C)C(c2ccccc2)=N1 (stereo not drawn) has what recorded TGI?
Key: > 100 µM

Exercise: Which TGI value is on record for C[As](C)SCC(COC(=O)C(Cl)c1ccccc1)OC(=O)C(Cl)c1ccccc1 (stereo not drawn) ?
Key: > 42.6 µM

---
Exercise: # input molecule: CC(C)N=C(N)NC#N ; wanted: its TGI
Key: > 100 µM

Exercise: Field request: TGI | item: Cn1cnc([N+](=O)[O-])c1Sc1nccn1-c1cccc2ccccc12
Key: > 100 µM

Exercise: I am curious: what TGI value has been reported for O=c1c2cc3c(=O)n4c(cc(-c5ccccc5)c5cc(Cl)ccc54)nc3cc2nc2cc(-c3ccccc3)c3cc(Cl)ccc3n12 ?
Key: > 100 µM

====

- System: UO-31 renal
- TEST_DESCRIPTION: NCI tumour cell line growth inhibition, 48 h
Reported TGI values for the following compounds.

Examples from the recorded data:
Exercise: Which TGI is reported for this compound? COc1ccccc1-c1cc(=O)c2cc3c(cc2[nH]1)OCO3
Key: > 100 µM

Exercise: Item CC(C)NC(=O)N(Nc1ccccc1)C(C)(C)C has what recorded TGI?
Key: > 100 µM

Exercise: State the recorded TGI for this entry: O=C(O)C1(C(=O)O)CCC1.[NH2-].[NH2-].[Pt+2]
Key: > 242 µM

Exercise: So what does the record say about TGI for COC(=O)c1cc(C(=CCC[C@H]2CC[C@@]3(C)C(CCC4C3CC[C@@]3(C)C4CC[C@@H]3C(C)CCCC(C)C)C2)c2cc(Cl)c(O)c(C(=O)OC)c2)cc(Cl)c1O (some centres undefined) ?
Key: > 10 µM

Exercise: Look up TGI for this compound: NCCCC[C@H](N)C(=O)Nc1ccc(-c2nc3ccccc3s2)cc1
Key: 26 µM

Continuing:
Exercise: Record request: TGI value, item CC(C)([NH-])CO.CC(C)([NH-])CO.[Cl][Cd][Cl]
Key: > 100 µM

Exercise: Consider the compound CC(=O)OCC1OC(n2c(-c3ccccc3)c(C(C)=O)c(-c3cccc4ccccc34)c(C#N)c2=S)C(OC(C)=O)C(OC(C)=O)C1OC(C)=O (centres undefined) and give its measured TGI.
Key: 0.0252 µM

Exercise: Report TGI for NC(=O)NCCCC(NC(=O)OCCCCCCn1ccc(=O)[nH]c1=O)C(=O)O (centres undefined) please.
Key: > 100 µM

Exercise: TGI for Clc1ccc(-c2c3c(nn2-c2ccccn2)CCc2ccccc2-3)cc1Cl ?
Key: > 100 µM

Exercise: TGI lookup needed for Cc1ccc(S(=O)(=O)NC2(C=O)CCCC3CCCCC32)cc1 (centres undefined) , thanks.
Key: > 100 µM

Exercise: Reported TGI, compound O=C1CSC(c2ccccc2[N+](=O)[O-])N1c1ccc(-c2ccc(-n3c(-c4ccccc4)nc4ccccc4c3=O)cc2)cc1 (centres undefined) : ____
Key: > 100 µM

Exercise: Record request: TGI value, item COC1C(O)C(n2ncc3c(SC)nc(SC)nc32)OC1C(O)CO (centres undefined)
Key: > 100 µM

====

- Test system: DLD-1 colon
- TEST_DESCRIPTION: NCI tumour cell line growth inhibition, 48 h
READOUT_NAME: TGI

The examples below pair each entry with its known result.
Exercise: Would you kindly share the measured TGI for CC(C)NC(=O)OCc1c(CO)c2c(n1C)-c1ccccc1CC2 ?
Key: 46.4 µM

Exercise: Need TGI of COC(=O)c1ccc(N=NN(C)COc2ccc(Br)cc2)cc1 , thanks.
Key: > 100 µM

Exercise: Any idea what its TGI is? The compound is CC(=O)OC[C@@H](COC(=O)/C=C/c1ccc(O)cc1)OC1OC(CO)C(O)C(O)C1O (stereo partly drawn)
Key: > 100 µM

Exercise: Record request: TGI value, item CC1=C(O)C(=O)C2C(=O)C1C1Cc3ccccc3C21 (stereo not drawn)
Key: > 100 µM

Exercise: Given COC(=O)c1cccn1C(=O)n1cccc1 , state its recorded TGI.
Key: > 100 µM

Next:
Exercise: For the compound shown here, O=C(CCN1CCN(c2ccccc2)CC1)N1CCc2c([nH]c3ccccc23)C1c1cccnc1 (stereo not drawn) , give the reported TGI.
Key: 36.2 µM

Exercise: Tell me the measured TGI of CCC/C(=N\NC(=S)N1CC2CCC(CC2)C1)c1ccccn1 , please.
Key: 3.33 µM

Exercise: Using the record for Cc1ccc(S(=O)(=O)NC2(C=O)CCCC3CCCCC32)cc1 (stereo not drawn) , report its TGI.
Key: > 100 µM
